target: His-14-3-3ζ (Homo sapiens, UniProt P63104); construct: made in house; host or cells: Escherichia coli BL21 LOBSTR-RIL; assay: Surface plasmon resonance (SPR) on immobilized His-14-3-3ζ; type: binding; details: SPR dissociation rate, value repeated per curve
Sequence (P63104 whole entry): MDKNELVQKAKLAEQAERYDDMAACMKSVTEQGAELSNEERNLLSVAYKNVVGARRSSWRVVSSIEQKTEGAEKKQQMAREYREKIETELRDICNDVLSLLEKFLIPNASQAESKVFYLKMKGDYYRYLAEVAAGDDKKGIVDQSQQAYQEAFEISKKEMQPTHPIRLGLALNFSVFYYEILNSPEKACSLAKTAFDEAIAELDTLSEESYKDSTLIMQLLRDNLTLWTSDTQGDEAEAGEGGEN
endpoint_label: kd (s⁻¹)

Examples with their reported kd follow.
OC1(c2ccc(Cl)c(C(F)(F)F)c2)CCN(CCCC(c2ccc(F)cc2)c2ccc(F)cc2)CC1 [Penfluridol]: 0.00974
CCCCCCCCc1ccc(CCC(N)(CO)CO)cc1 [Fingolimod (FTY720), Fingolimod]: 0.00856
CCCCCCOC(=O)c1ccc(Nc2c([N+](=O)[O-])cc(C(=O)O)cc2[N+](=O)[O-])cc1 [BV01]: 0.0112

I. O=C(NC1CCN(CCCCC2(C(=O)NCC(F)(F)F)c3ccccc3-c3ccccc32)CC1)c1ccccc1-c1ccc(C(F)(F)F)cc1 [Lomitapide]
II. CC(C)(C)c1ccc(C(O)CCCN2CCC(C(O)(c3ccccc3)c3ccccc3)CC2)cc1 (centres unmarked) [Terfenadine]
Of I and II , whose reported kd is numerically smaller? Your answer should be the label of the entry you select.
I

###

tested on: HT-29 cells; assay: Hoechst/propidium iodide cell death assay in HT-29; format: cell-based, human; conditions: Homo sapiens, HT-29, 24 h, 20 µM, 24 h; read-out: Percentage of cell death % 24h HT-29
Structures can show the parent of a compound that is named as a salt.
endpoint_label: cytotoxicity at 20 µM (%)
Just the number in %, nothing appended.

Examples with their reported cytotoxicity at 20 µM follow.
O=C1Cc2cc(CCN3CCN(c4nsc5ccccc45)CC3)c(Cl)cc2N1 [Ziprasidone hydrochloride monohydrate]: 1.29
OC1(c2ccc(Cl)c(C(F)(F)F)c2)CCN(CCCC(c2ccc(F)cc2)c2ccc(F)cc2)CC1 [Penfluridol]: 77.5
Clc1ccc(C(c2ccccc2Cl)C(Cl)Cl)cc1 (stereo not shown) [Mitotane (Lsodren), Mitotane]: 0.553
O=c1[nH]c2ccccc2n1C1CCN(CCCC(c2ccc(F)cc2)c2ccc(F)cc2)CC1 [Pimozide]: 11
CC1(C)[C@@H](O)CC[C@]2(C)[C@H]3C(=O)C=C4[C@@H]5C[C@@](C)(C(=O)O)CC[C@]5(C)CC[C@@]4(C)[C@]3(C)CC[C@@H]12 [Enoxolone]: 0.697

Please give the documented cytotoxicity at 20 µM of COc1cc2ncnc(Nc3ccc(F)c(Cl)c3)c2cc1NC(=O)/C=C/CN1CCCCC1 [Dacomitinib (PF299804, PF299), Dacomitinib]
22.7

Please give the documented cytotoxicity at 20 µM of CC(C)Oc1ccc(-c2nc(-c3cccc4c3CC[C@@H]4NCCO)no2)cc1C#N [Ozanimod (RPC1063), Ozanimod]
1.29

###

tested on: HT-29 cells; assay: Hoechst/propidium iodide cell death assay in HT-29; assay type: cell-based, human; settings: Homo sapiens, HT-29, 48 h, HT-29; 48h; 20 μM; read-out: Percentage of cell death % 48h, HT-29
Where a name gives a salt, the structure may show the parent alone.
endpoint_label: cytotoxicity at 20 µM (%)
Just the number in %, nothing appended.

Examples with their reported cytotoxicity at 20 µM follow.
O=C(NC1CCN(CCCCC2(C(=O)NCC(F)(F)F)c3ccccc3-c3ccccc32)CC1)c1ccccc1-c1ccc(C(F)(F)F)cc1 [Lomitapide]: 72.9
CN(C(=O)CN(CCO)CC(=O)N(C)C(C)(C)Cc1ccccc1)C(C)(C)Cc1ccccc1: 53.1
CCN(CC)CCOc1ccc(C(=C(Cl)c2ccccc2)c2ccccc2)cc1 [Clomiphene citrate]: 52

Give cytotoxicity at 20 µM only, for CC(C)Oc1ccc(-c2nc(-c3cccc4c3CC[C@@H]4NCCO)no2)cc1C#N [Ozanimod (RPC1063), Ozanimod] , using HT-29 cells data.
3.92
